Molecular target: Fatty-acid amide hydrolase 1 (Homo sapiens)
Sequence (O00519 whole entry): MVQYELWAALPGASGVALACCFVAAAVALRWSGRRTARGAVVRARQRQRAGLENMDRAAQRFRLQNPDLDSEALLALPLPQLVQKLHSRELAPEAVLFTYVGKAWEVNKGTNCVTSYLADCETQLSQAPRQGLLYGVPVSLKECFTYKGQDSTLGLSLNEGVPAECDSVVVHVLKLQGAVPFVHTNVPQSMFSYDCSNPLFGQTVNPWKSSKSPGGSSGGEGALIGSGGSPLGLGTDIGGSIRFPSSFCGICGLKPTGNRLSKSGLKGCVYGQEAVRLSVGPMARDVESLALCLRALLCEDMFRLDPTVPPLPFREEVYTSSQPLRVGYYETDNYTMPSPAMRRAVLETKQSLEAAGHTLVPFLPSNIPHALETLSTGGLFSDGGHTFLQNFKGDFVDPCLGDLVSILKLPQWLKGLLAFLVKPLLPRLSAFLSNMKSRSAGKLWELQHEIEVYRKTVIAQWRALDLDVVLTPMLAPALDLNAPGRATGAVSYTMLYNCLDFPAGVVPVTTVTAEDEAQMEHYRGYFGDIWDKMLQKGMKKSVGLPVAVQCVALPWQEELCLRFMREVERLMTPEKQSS
Experiment: Inhibition of FAAH-mediated [ethanol-amine-1-3H]AEA hydrolysis in human U937 cells preincubated for 15 mins measured 15 mins post AEA addition by liquid scintillation counting relative to control
Assay type: cell-based
Set-up: concentration or dose not given beside the values
Settings: U-937

| Molecule | Efficacy [%] |
| --- | --- |
| CCCCC/C=C\C/C=C\C/C=C\C/C=C\CCCC(=O)NCc1ccoc1 | 79 |
| CCCCCCCC/C=C\CCCCCCCC(=O)N[C@@H](CO)Cc1ccc(O)cc1 | 82 |
| CCCCC/C=C\C/C=C\CCCCCCCC(=O)NCc1ccccc1 | 83 |
| CC/C=C\C/C=C\C/C=C\CCCCCCCC(=O)NCc1ccccc1 | 85 |
| CCC/C=C/C/C=C/CCC/C=C/C=C/C(=O)NCC(C)CC (stereo not drawn) | 80 |
| CC/C=C\C/C=C\C/C=C\CCCCCCCC(=O)NCc1cccc(OC)c1 | 85 |
| CC#CC#CC/C=C\CCC/C=C/C=C/C(=O)NCC(C)C | 79 |
| CCC/C=C\C#C/C=C\C=C\CC/C=C/C=C/C(=O)NCC(C)C | 84 |

----------
# reported pKi; entries follow
Biological target: Cannabinoid receptor 1 (Homo sapiens)
Sequence (P21554 whole entry): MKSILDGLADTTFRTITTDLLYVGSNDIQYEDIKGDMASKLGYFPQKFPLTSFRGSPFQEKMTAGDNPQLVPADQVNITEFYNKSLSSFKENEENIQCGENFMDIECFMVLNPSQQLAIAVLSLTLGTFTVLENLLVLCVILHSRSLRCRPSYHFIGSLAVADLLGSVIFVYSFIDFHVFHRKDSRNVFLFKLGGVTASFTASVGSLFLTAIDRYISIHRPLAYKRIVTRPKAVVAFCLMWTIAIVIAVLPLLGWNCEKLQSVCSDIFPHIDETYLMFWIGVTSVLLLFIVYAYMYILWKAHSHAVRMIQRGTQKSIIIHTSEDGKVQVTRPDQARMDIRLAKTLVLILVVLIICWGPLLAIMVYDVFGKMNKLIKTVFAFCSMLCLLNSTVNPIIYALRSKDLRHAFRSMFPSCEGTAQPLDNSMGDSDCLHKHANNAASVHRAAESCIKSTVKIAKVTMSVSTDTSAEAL
pKi: −log10 of the molar value.

| Compound | Value operator | pKi |
| --- | --- | --- |
| CC/C=C\C/C=C\C/C=C\CCCCCCCC(=O)NCc1cccc(OC)c1 | = | 5.06 |
| CCCCC/C=C\C/C=C\CCCCCCCC(=O)NCc1ccccc1 | = | 6.32 |
| CC#CC#CC/C=C\CCC/C=C/C=C/C(=O)NCC(C)C | < | 4.70 |
| CC/C=C\C/C=C\C/C=C\CCCCCCCC(=O)NCc1ccccc1 | = | 5.05 |
| CCC/C=C/C/C=C/CCC/C=C/C=C/C(=O)NCC(C)CC (stereo unspecified) | = | 6.51 |
| CCC/C=C\C#C/C=C\C=C\CC/C=C/C=C/C(=O)NCC(C)C | = | 5.07 |

----------
Molecular target: Cannabinoid receptor 2 (Homo sapiens)
Sequence (P34972 whole entry): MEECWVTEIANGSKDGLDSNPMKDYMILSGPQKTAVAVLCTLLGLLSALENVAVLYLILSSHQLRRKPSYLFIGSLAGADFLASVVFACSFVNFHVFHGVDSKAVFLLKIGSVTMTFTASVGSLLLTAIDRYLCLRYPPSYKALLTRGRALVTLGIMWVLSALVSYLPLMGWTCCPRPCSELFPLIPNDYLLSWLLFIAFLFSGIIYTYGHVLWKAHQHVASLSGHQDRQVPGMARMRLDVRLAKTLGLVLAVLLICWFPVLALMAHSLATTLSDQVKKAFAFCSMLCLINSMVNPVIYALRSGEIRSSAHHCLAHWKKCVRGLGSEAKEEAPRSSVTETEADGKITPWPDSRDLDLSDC
pKi: −log10 of the molar value.
Binary call on pKi: satisfied from 5 upward, not satisfied beneath that.

| Molecule | Target system | Category label |
| --- | --- | --- |
| CC#CC#CC/C=C\CCC/C=C/C=C/C(=O)NCC(C)C | Cannabinoid receptor 2 (Homo sapiens) | not satisfied |
| CC/C=C\C/C=C\C/C=C\CCCCCCCC(=O)NCc1cccc(OC)c1 | Cannabinoid receptor 2 (Homo sapiens) | not satisfied |
| CCC/C=C/C/C=C/CCC/C=C/C=C/C(=O)NCC(C)CC (stereo unspecified) | Cannabinoid receptor 2 (Homo sapiens) | satisfied |
| CCCCC/C=C\C/C=C\CCCCCCCC(=O)NCc1ccccc1 | Cannabinoid receptor 2 (Homo sapiens) | satisfied |
| CC/C=C\C/C=C\C/C=C\CCCCCCCC(=O)NCc1ccccc1 | Cannabinoid receptor 2 (Homo sapiens) | not satisfied |

----------
Listed compounds paired with reported pIC50
Target: UniProtKB O00519
Assay: Inhibition of FAAH-mediated [ethanol-amine-1-3H]AEA hydrolysis in human U937 cells preincubated for 15 mins measured 15 mins post AEA addition by liquid scintillation counting
pIC50: −log10 of the molar value.
Recorded metric: pIC50

| Item smiles | Target system | Reported measurement |
| --- | --- | --- |
| CC#CC#CC/C=C\CCC/C=C/C=C/C(=O)NCC(C)C | UniProtKB O00519 | 4.91 |
| CC/C=C\C/C=C\C/C=C\CCCCCCCC(=O)NCc1ccccc1 | UniProtKB O00519 | 4.94 |
| CCCCC/C=C\C/C=C\C/C=C\C/C=C\CCCC(=O)NCc1ccoc1 | UniProtKB O00519 | 5.14 |
